- Test system: biotinyl-Trp-oxazolone
- experimental_protocol: self-aminoacylation, catalytic enhancement (BWO) (fold over background); higher = more active; k-Seq, kA / k0A0; sequences stand for … in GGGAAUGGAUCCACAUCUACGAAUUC…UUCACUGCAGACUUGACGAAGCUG
Fewer inactive variants are shown than the library holds.
readout: self-aminoacylation
Just the number, please.

# count of solved cases: 2
Enquiry: Give self-aminoacylation for the following sequence: CCACACUUCAAGCAAUCAGUU [Fam1B.1 aminoacylation ribozyme variant]
Return: 1.12

Enquiry: Input AAGAUUGCUAAUAGUCGCGAG [Fam3.1 aminoacylation ribozyme variant] , output reported self-aminoacylation.
Return: 1.1

More entries:
Enquiry: Tell me self-aminoacylation reported for AUUAUCCUAGUCAUCGAGUGA [Fam2.1 aminoacylation ribozyme variant]
Return: 8.1

----------
Entries annotated with measured self-aminoacylation
- Test system: biotinyl-Ile-oxazolone
- experimental_protocol: self-aminoacylation, catalytic enhancement (BIO) (fold over background); higher = more active; k-Seq, kA / k0A0; sequences stand for … in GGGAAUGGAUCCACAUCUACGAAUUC…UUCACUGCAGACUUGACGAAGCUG
Variants at the floor of the assay were thinned out.

Please review the following examples before continuing.
Enquiry: State, in one line, measured self-aminoacylation of CCACACUUCAAGCAAUCAUUC [Fam1B.1 aminoacylation ribozyme variant]
Return: 0.649

Enquiry: Answer with reported self-aminoacylation of GCACACUUCAAGCAAUCCGUC [Fam1B.1 aminoacylation ribozyme variant]
Return: 1.66

Enquiry: Output self-aminoacylation of UCACACUUCAAGAAAUCGGUC [Fam1B.1 aminoacylation ribozyme variant]
Return: 0.947

Enquiry: Provide self-aminoacylation value for the following sequence: AAGUUUGCUAAUACACGCAAG [Fam3.1 aminoacylation ribozyme variant]
Return: 0.665

Enquiry: Output measured self-aminoacylation for this item: ACUAACCUGGUCAUCGAGUGA [Fam2.1 aminoacylation ribozyme variant]
Return: 3.19

Continuing:
Enquiry: Answer with the recorded self-aminoacylation for the sequence listed here: AUUCCCCUAGGUCAUCGGGGG [Fam2.2 aminoacylation ribozyme variant]
Return: 8.54

Enquiry: Look up and state reported self-aminoacylation for CCAAACUUCAAGCAAUCGGUC [Fam1B.1 aminoacylation ribozyme variant]
Return: 1.19

Enquiry: Look up and report measured self-aminoacylation for this entry: AUUACCCUGGCCAUGGAGUGA [Fam2.1 aminoacylation ribozyme variant]
Return: 3.24

Enquiry: Specify self-aminoacylation for CUGCUUGAAACAAUCGGUCUG [Fam1A.1 aminoacylation ribozyme variant] and stop.
Return: 0.9

Enquiry: State, in one line, measured self-aminoacylation of AUUACCCUGGUCACCGAGUGA [Fam2.1 aminoacylation ribozyme variant]
Return: 3.9

Enquiry: Answer with the recorded self-aminoacylation for the sequence listed here: AUUCACAUAGGUCUUCGGGUG [Fam2.2 aminoacylation ribozyme variant]
Return: 4.26

Enquiry: Look up self-aminoacylation of AUUCACCAAAGUCAUCGGGUG [Fam2.2 aminoacylation ribozyme variant] and report it.
Return: 9.57

Enquiry: // fetch self-aminoacylation given entry AUUUACCUAGGUAAUCGGGUG [Fam2.2 aminoacylation ribozyme variant]
Return: 1.85

Enquiry: Quickly give me recorded self-aminoacylation for CCACACUUCAAUCAAUCGGUU [Fam1B.1 aminoacylation ribozyme variant]
Return: 1.47

Enquiry: Please report self-aminoacylation for the following sequence: CUACUUCAAACAACCGGCCUG [Fam1A.1 aminoacylation ribozyme variant]
Return: 1.8

Enquiry: Return the recorded self-aminoacylation value; entry: AUUACGCUGGUCAGCGAGUGA [Fam2.1 aminoacylation ribozyme variant]
Return: 3.34

Enquiry: For the sequence CCACACUACAAGCAAUCGGUU [Fam1B.1 aminoacylation ribozyme variant] , report self-aminoacylation.
Return: 1.02
